Biological target: DNA gyrase subunit B (Staphylococcus aureus)
Sequence (P0A0K8 whole entry): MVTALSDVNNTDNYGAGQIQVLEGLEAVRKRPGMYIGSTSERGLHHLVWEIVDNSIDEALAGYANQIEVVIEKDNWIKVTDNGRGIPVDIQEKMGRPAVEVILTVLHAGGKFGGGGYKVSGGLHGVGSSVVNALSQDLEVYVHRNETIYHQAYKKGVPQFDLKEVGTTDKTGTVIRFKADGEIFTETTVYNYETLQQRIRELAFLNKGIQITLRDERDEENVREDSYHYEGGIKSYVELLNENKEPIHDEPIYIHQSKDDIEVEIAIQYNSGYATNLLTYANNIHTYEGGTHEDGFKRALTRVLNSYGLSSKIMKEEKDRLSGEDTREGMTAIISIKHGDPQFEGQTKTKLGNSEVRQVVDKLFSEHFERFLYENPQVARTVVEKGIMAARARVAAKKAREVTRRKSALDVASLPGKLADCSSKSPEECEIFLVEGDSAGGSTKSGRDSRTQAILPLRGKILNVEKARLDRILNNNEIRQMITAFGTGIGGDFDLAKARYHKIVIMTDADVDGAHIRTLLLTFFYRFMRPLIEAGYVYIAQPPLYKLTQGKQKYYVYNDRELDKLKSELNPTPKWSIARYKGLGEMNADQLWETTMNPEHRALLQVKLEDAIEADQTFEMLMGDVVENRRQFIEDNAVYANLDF
Test: Inhibition of Staphylococcus aureus DNA gyrase B expressed in Escherichia coli BL21(DE3) cells assessed ATP hydrolysis activity […] by malachite green reagent assay
pIC50: −log10 of the molar value.
Assign Condition met whenever pIC50 does not fall below 8; assign Condition not met whenever it does.

Q: Hi team, for `CCNC(=O)c1cc2c(-n3ccc(C(F)(F)F)n3)c(-c3cncc(-c4n[nH]c(=O)o4)c3)cnc2[nH]1` , is the recorded pIC50 at or above 8?
Result: Condition met

Q: Ok, now `CC(C)NC(=O)c1cc2c(-n3ccc(C(F)(F)F)n3)c(-c3cncc(C(=O)O)c3)cnc2[nH]1`
Result: Condition not met

Q: Ok, now `CCNC(=O)c1cc2c(-n3ccc(C(F)(F)F)n3)c(-c3cncc(C#N)c3)cnc2[nH]1`
Result: Condition not met

* * *

Assay: Inhibition of Streptococcus pneumoniae DNA Topoisomerase 4 subunit ParE
In this section we review reported IC50 values for a set of compounds.
All answers are understood in nM, so give the number only.

Answered examples (4):
CCNC(=O)c1cc2c(-n3nc(C(F)(F)F)cc3C)c(-c3cncc(C(=O)O)c3)cnc2[nH]1	65
CCNC(=O)c1cc2c(-n3ccc(C(F)(F)F)n3)c(-c3cncc(C#N)c3)cnc2[nH]1	10
CC(C)NC(=O)c1cc2c(-n3ccc(C(F)(F)F)n3)c(-c3cncc(C(=O)O)c3)cnc2[nH]1	44
O=C(O)c1cncc(-c2cnc3[nH]c(C(=O)NC4CC4)cc3c2-n2ccc(C(F)(F)F)n2)c1	6

Read the next record carefully.
Q: Recorded IC50 for `CCNC(=O)c1cc2c(-n3ccc(C(F)(F)F)n3)c(-c3cc(-c4n[nH]c(=O)o4)cnc3OC)cnc2[nH]1` , please?
Result: 3

* * *

Experiment: Lipophilicity, log D of the compound
Details: octanol/water
reported_endpoint: logD
Please reply with the number alone, leaving off any unit.

Answered examples (5):
O=C(O)c1cncc(-c2cnc3[nH]c(C(=O)NC4CC4)cc3c2-n2ccc(C(F)(F)F)n2)c1	-0.98
CCNC(=O)c1cc2c(-n3ccc(C(F)(F)F)n3)c(-c3cncc(C#N)c3)cnc2[nH]1	2.62
CC(C)NC(=O)c1cc2c(-n3ccc(C(F)(F)F)n3)c(-c3cncc(C(=O)O)c3)cnc2[nH]1	-0.62
CCNC(=O)c1cc2c(-n3ccc(C(F)(F)F)n3)c(-c3cncc(C(=O)O)c3)cnc2[nH]1	-0.99
CCCNC(=O)c1cc2c(-n3ccc(C(F)(F)F)n3)c(-c3cncc(C(=O)O)c3)cnc2[nH]1	-0.79

Q: Recorded logD for `CCNC(=O)c1cc2c(-n3nc(C(F)(F)F)cc3C)c(-c3cncc(C(=O)O)c3)cnc2[nH]1` , please?
Result: -0.88

Q: Ok, now `CCNC(=O)c1cc2c(-n3ccc(C(F)(F)F)n3)c(-c3cc(-c4n[nH]c(=O)o4)cnc3OC)cnc2[nH]1`
Result: 2.91

* * *

Test: Inhibition of Streptococcus pneumoniae DNA Topoisomerase 4 subunit ParE
In this section we review reported IC50 values for a set of compounds.
All answers are understood in nM, so give the number only.

Answered examples (3):
CCNC(=O)c1cc2c(-n3ccc(C(F)(F)F)n3)c(-c3cnc(OC)c(-c4n[nH]c(=O)o4)c3)cnc2[nH]1	3
CCNC(=O)c1cc2c(-n3ccc(C(F)(F)F)n3)c(-c3cncc(C(=O)NC)c3)cnc2[nH]1	16
CCCNC(=O)c1cc2c(-n3ccc(C(F)(F)F)n3)c(-c3cncc(C(=O)O)c3)cnc2[nH]1	45

Q: Recorded IC50 for `CCNC(=O)c1cc2c(-n3ccc(C(F)(F)F)n3)c(-c3cncc(-c4n[nH]c(=O)o4)c3)cnc2[nH]1` , please?
Result: 3
